Target: human TMEM16A (TMEM16Aabc variant) (Homo sapiens, UniProt Q5XXA6, DEL476-501)
Sequence (Q5XXA6 with tags, fused parts or gaps isoform Q5XXA6-5 DEL539-564): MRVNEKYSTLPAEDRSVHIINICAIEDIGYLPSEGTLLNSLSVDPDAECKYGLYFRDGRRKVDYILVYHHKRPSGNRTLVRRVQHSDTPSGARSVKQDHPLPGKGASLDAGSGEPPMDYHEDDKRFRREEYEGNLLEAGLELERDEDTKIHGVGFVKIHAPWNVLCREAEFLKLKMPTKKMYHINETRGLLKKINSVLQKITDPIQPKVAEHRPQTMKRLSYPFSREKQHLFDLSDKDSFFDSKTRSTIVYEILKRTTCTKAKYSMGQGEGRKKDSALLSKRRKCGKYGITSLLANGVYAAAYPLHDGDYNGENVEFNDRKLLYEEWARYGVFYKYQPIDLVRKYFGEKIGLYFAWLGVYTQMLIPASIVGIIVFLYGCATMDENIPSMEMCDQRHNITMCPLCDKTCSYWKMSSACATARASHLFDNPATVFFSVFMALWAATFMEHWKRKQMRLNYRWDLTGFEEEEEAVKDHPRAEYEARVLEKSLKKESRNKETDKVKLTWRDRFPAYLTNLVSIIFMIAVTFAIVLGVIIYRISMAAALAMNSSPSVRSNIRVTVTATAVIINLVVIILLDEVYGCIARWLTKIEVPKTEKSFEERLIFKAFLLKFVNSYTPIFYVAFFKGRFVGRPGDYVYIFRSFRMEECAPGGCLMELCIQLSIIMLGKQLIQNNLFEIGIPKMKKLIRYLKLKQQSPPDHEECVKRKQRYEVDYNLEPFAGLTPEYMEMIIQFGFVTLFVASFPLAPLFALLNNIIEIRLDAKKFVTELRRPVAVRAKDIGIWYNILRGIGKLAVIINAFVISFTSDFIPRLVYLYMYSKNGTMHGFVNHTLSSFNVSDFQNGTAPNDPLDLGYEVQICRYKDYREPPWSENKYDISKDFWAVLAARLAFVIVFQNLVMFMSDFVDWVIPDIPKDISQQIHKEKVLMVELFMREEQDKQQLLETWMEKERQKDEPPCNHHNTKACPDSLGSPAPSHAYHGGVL
Test: Automated whole-cell patch clamp (Qpatch) TMEM16A potentiator assay in recombinant FRT cells
Assay type: cell-based
Conditions: 3.33 uM, percentage increase of baseline TMEM16A current, minimum n = 2, read-out: % Potentiation @ 3.33 uM Avg
METRIC: activation at 3.33 µM (%)

CC1(NC(=O)c2cc(NC(=O)Cc3cc(O)c(C(C)(C)CO)cc3F)ccn2)CCOCC1 [Example 16.1]; 214

1: CCC(C)(O)c1cc(F)c(CC(=O)Nc2ccnc(C(=O)NC3(C(F)(F)F)CC3)c2)cc1O (stereo not drawn) [Example 2.11]
2: CC(C)(C)c1cc(F)c(CC(=O)Nc2ccnc(C(=O)NC3(C#N)CC3)c2)cc1O [Example 1.5]
Problem: Given the entries 1 and 2 , determine which has the lower reported activation at 3.33 µM. Field: selected label. Fill in the label of the entry you choose.
2
